system: 276233-004-R-J1-PDC KRAS spheroids with HUVEC/MSC, viability; experiment: Anticancer human tumor 276233-004-R-J1-PDC patient-derived colon adenocarcinoma cell line growth inhibition [KRAS2]; settings: second compound 0.316 µM; first compound 0.1 µM; hits give low values
For each entry below, report its viability, T/C value.
Form entry: value (%) — number only.

// recorded viability, T/C for CC(C)n1nc(-c2ccc3oc(N)nc3c2)c2c(N)ncnc21 + CNCc1ccccc1-c1csc(C(C)Nc2nc(C)nc3cc(OC)c(OC)cc23)c1 : 54.5

Record CCN1CCN(Cc2ccc(Nc3ncc(F)c(-c4cc(F)c5nc(C)n(C(C)C)c5c4)n3)nc2)CC1 + C=CC(=O)N1CCN(c2nc(=O)n(-c3c(C)ccnc3C(C)C)c3nc(-c4c(O)cccc4F)c(F)cc23)C(C)C1 , field viability, T/C: 81.8

Reported viability, T/C of COc1cc2nccc(Oc3ccc(NC(=O)C4(C(=O)Nc5ccc(F)cc5)CC4)cc3)c2cc1OC + C=CC(=O)N1CCN(c2nc(OCC3CCCN3C)nc3c2CCN(c2cccc4cccc(C)c24)C3)CC1CC#N : 79.5

Given item CCN1CCN(Cc2ccc(Nc3ncc(F)c(-c4cc(F)c5nc(C)n(C(C)C)c5c4)n3)nc2)CC1 + CC1OCC2(CCN(c3cnc(Sc4ccnc(N)c4Cl)c(N)n3)CC2)C1N , the value recorded as its viability, T/C is 85.6

Query CC1(C)CCC(CN2CCN(c3ccc(C(=O)NS(=O)(=O)c4ccc(NCC5CCOCC5)c([N+](=O)[O-])c4)c(Oc4cnc5[nH]ccc5c4)c3)CC2)=C(c2ccc(Cl)cc2)C1 + C=CC(=O)N1CCN(c2nc(=O)n(-c3c(C)ccnc3C(C)C)c3nc(-c4c(O)cccc4F)c(F)cc23)C(C)C1 yields viability, T/C of 108

====

tested on: 276233-004-R-J1-PDC KRAS spheroids with HUVEC/MSC, viability; experiment: Anticancer human tumor 276233-004-R-J1-PDC cell line growth inhibition [KRAS2]; details: second compound 3.16 µM; first compound 1 µM; hits give low values;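 note: cells exposed to agents for seven days before viability read; 100% = DMSO vehicle control wells and lower values mean fewer viable cells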
Could you please mark 1.0 for values of viability, T/C below 70% and 0.0 for values at or above it?

is_below(viability, T/C, 70%) for CCNC(=O)CC1N=C(c2ccc(Cl)cc2)c2cc(OC)ccc2-n2c(C)nnc21 (configuration not stated) + COc1cc2nc(C)nc(NC(C)c3cc(N)cc(C(F)(F)F)c3)c2cc1OC1CCOC1 ? 1.0

Dear colleague, could you confirm whether viability, T/C of Cn1nccc1Nc1nccc(-c2cc3c(s2)C(C)(C)N(CCN2CCOCC2)C3=O)n1 + COc1cc2nc(C)nc(NC(C)c3cc(N)cc(C(F)(F)F)c3)c2cc1OC1CCOC1 falls below 70%? Thanks. 1.0

Determine if O=C(c1cc(Cc2n[nH]c(=O)c3ccccc23)ccc1F)N1CCN(C(=O)C2CC2)CC1 + CC1OCC2(CCN(c3cnc(Sc4ccnc(N)c4Cl)c(N)n3)CC2)C1N shows viability, T/C strictly lower than 70%. 1.0

viability, T/C strictly < 70% for this molecule? COc1cc(Nc2ncc3c(n2)-c2ccc(Cl)cc2C(c2c(F)cccc2OC)=NC3)ccc1C(=O)O + CC1OCC2(CCN(c3cnc(Sc4ccnc(N)c4Cl)c(N)n3)CC2)C1N 1.0

Strictly below 70% in viability, T/C? O=C(c1cc(Cc2n[nH]c(=O)c3ccccc23)ccc1F)N1CCN(C(=O)C2CC2)CC1 + C=CC(=O)N1CCN(c2nc(=O)n(-c3c(C)ccnc3C(C)C)c3nc(-c4c(O)cccc4F)c(F)cc23)C(C)C1 0.0

A record lists CCN1CCN(Cc2ccc(Nc3ncc(F)c(-c4cc(F)c5nc(C)n(C(C)C)c5c4)n3)nc2)CC1 + COc1cc2nc(C)nc(NC(C)c3cc(N)cc(C(F)(F)F)c3)c2cc1OC1CCOC1 . Is its viability, T/C below 70%? 0.0

Quick check: does CC1(C)CCC(CN2CCN(c3ccc(C(=O)NS(=O)(=O)c4ccc(NCC5CCOCC5)c([N+](=O)[O-])c4)c(Oc4cnc5[nH]ccc5c4)c3)CC2)=C(c2ccc(Cl)cc2)C1 + C=CC(=O)N1CCN(c2nc(=O)n(-c3c(C)ccnc3C(C)C)c3nc(-c4c(O)cccc4F)c(F)cc23)C(C)C1 have viability, T/C under 70%? 0.0

Does the reported viability, T/C of the following molecule sit strictly below 70%? COc1cc2nccc(Oc3ccc(NC(=O)C4(C(=O)Nc5ccc(F)cc5)CC4)cc3)c2cc1OC + CNCc1ccccc1-c1csc(C(C)Nc2nc(C)nc3cc(OC)c(OC)cc23)c1 1.0

# strict comparison: is reported viability, T/C < 70%? input = COC(=O)c1ccc2c(C(=Nc3ccc(N(C)C(=O)CN4CCN(C)CC4)cc3)c3ccccc3)c(O)[nH]c2c1 + COc1cc2nc(C)nc(NC(C)c3cc(N)cc(C(F)(F)F)c3)c2cc1OC1CCOC1 1.0

Please state whether viability, T/C is below 70% for CC(C)NCC(C(=O)N1CCN(c2ncnc3c2C(C)CC3O)CC1)c1ccc(Cl)cc1 (configuration not stated) + C=CC(=O)N1CCN(c2nc(=O)n(-c3c(C)ccnc3C(C)C)c3nc(-c4c(O)cccc4F)c(F)cc23)C(C)C1 1.0

is_below(viability, T/C, 70%) for CC1(C)CCC(CN2CCN(c3ccc(C(=O)NS(=O)(=O)c4ccc(NCC5CCOCC5)c([N+](=O)[O-])c4)c(Oc4cnc5[nH]ccc5c4)c3)CC2)=C(c2ccc(Cl)cc2)C1 + CC1OCC2(CCN(c3cnc(Sc4ccnc(N)c4Cl)c(N)n3)CC2)C1N ? 0.0

Find out if reported viability, T/C for CC(=O)OC12COC1CC(O)C1(C)C(=O)C(O)C3=C(C)C(OC(=O)C(O)C(NC(=O)OC(C)(C)C)c4ccccc4)CC(O)(C(OC(=O)c4ccccc4)C21)C3(C)C (configuration not stated) + C=CC(=O)N1CCN(c2nc(OCC3CCCN3C)nc3c2CCN(c2cccc4cccc(C)c24)C3)CC1CC#N is less than 70% 0.0

====

So I've got a bunch of molecules here, and I need their viability, T/C values.
test system: 276233-004-R-J1-PDC KRAS spheroids with HUVEC/MSC, viability; test: Anticancer human tumor 276233-004-R-J1-PDC cell line growth inhibition [KRAS2]; conditions: second compound 0.1 µM; first compound 0.0316 µM; hits give low values;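 note: cells exposed to agents for seven days before viability read; 100% = DMSO vehicle control wells and lower values mean fewer viable cells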
Give your result in % as a bare value.

Entry CC(C)n1nc(-c2ccc3oc(N)nc3c2)c2c(N)ncnc21 + C=CC(=O)N1CCN(c2nc(OCC3CCCN3C)nc3c2CCN(c2cccc4cccc(C)c24)C3)CC1CC#N ; viability, T/C = 63.2

Looking up COC(=O)c1ccc2c(C(=Nc3ccc(N(C)C(=O)CN4CCN(C)CC4)cc3)c3ccccc3)c(O)[nH]c2c1 + CNCc1ccccc1-c1csc(C(C)Nc2nc(C)nc3cc(OC)c(OC)cc23)c1 , I see its viability, T/C listed as 95.9

Reported viability, T/C ( Cn1ncnc1[C@H]1c2n[nH]c(=O)c3cc(F)cc(c23)N[C@@H]1c1ccc(F)cc1 + COc1cc2nc(C)nc(NC(C)c3cc(N)cc(C(F)(F)F)c3)c2cc1OC1CCOC1 ) = 89.7

====

test system: 276233-004-R-J1-PDC KRAS spheroids with HUVEC/MSC, viability; assay: Anticancer human tumor 276233-004-R-J1-PDC cell line growth inhibition [KRAS2]; conditions: second compound 0.1 µM; first compound 0.00316 µM; hits give low values;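 note: cells exposed to agents for seven days before viability read; 100% = DMSO vehicle control wells and lower values mean fewer viable cells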
Kindly supply the reported viability, T/C values for the records listed here.
Output spec: scalar in %, unitless text.

Please fill in: viability, T/C reported for CN(C)C/C=C/C(=O)Nc1cc2c(Nc3ccc(F)c(Cl)c3)ncnc2cc1O[C@H]1CCOC1 + COc1cc2nc(C)nc(NC(C)c3cc(N)cc(C(F)(F)F)c3)c2cc1OC1CCOC1 = 77.4

Looking up Cn1ncnc1[C@H]1c2n[nH]c(=O)c3cc(F)cc(c23)N[C@@H]1c1ccc(F)cc1 + CC1OCC2(CCN(c3cnc(Sc4ccnc(N)c4Cl)c(N)n3)CC2)C1N , I see its viability, T/C listed as 102

Data point: CCN1CCN(Cc2ccc(Nc3ncc(F)c(-c4cc(F)c5nc(C)n(C(C)C)c5c4)n3)nc2)CC1 + COc1cc2nc(C)nc(NC(C)c3cc(N)cc(C(F)(F)F)c3)c2cc1OC1CCOC1 ; viability, T/C = 89.2

Sample CC(=O)Nc1cccc(-n2c(=O)n(C3CC3)c(=O)c3c(Nc4ccc(I)cc4F)n(C)c(=O)c(C)c32)c1 + CC1OCC2(CCN(c3cnc(Sc4ccnc(N)c4Cl)c(N)n3)CC2)C1N ; viability, T/C observed: 55.5

The recorded viability, T/C for CC(C)n1nc(-c2ccc3oc(N)nc3c2)c2c(N)ncnc21 + COc1cc2nc(C)nc(NC(C)c3cc(N)cc(C(F)(F)F)c3)c2cc1OC1CCOC1 is 76.7

Value of measured viability, T/C for the entry CC(C)n1nc(-c2ccc3oc(N)nc3c2)c2c(N)ncnc21 + CNCc1ccccc1-c1csc(C(C)Nc2nc(C)nc3cc(OC)c(OC)cc23)c1 : 66.1
